Each recorded value in this set is attributed to the supplement of paper PMC11208160.

test: recombinant UMI read abundance after kanamycin selection (control-corrected) (log10(CPM+1)); higher = more efficient recombination; extreme values may be limits of the assay; sequences stand for … in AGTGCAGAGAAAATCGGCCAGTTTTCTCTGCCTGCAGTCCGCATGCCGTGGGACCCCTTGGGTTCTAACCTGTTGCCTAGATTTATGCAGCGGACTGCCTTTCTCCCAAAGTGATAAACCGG…AGGTTGGTTTCACT; site = the 11-nt donor;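 also: IS621 bridge recombinase in Escherichia coli cells against a fixed T5 target plasmid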
recorded.metric: recombinant UMI read abundance (log10)
Number only, please.

Some entries whose results are on file:
ordered.residues | assay.result
GGCAATCCATGGACCGGTTTTCCCGGTAATCCGTATTTGCA (site GGCAATCCTTG) | 0
CGCACTCCATGGACCGGTTTTCCCGGTAATCCGTATTTGTT (site CGGAATCCTAA) | 0
TGAGCTGCATGGACCGGTTTTCCCGGTAATCCGTATTTGTG (site TGAGCTGCTCA) | 0.639

Request: Tell me the measured recombinant UMI read abundance (log10) of AGCCTAGCATGGACCGGTTTTCCCGGTAATCCGTATTTGTA (site AGCCTAGCTTA) , please.
Result: 0.245

Request: Tell me the measured recombinant UMI read abundance (log10) of ATCCGTCCATGGACCGGTTTTCCCGGTAATCCGTATTTGAC (site ATCCGTCCTGT) , please.
Result: 0.00623

###

# recombinant UMI read abundance (log10) listing for each entry below
experiment: recombinant UMI read abundance after kanamycin selection (control-corrected) (log10(CPM+1)); higher = more efficient recombination; extreme values may be limits of the assay; sequences stand for … in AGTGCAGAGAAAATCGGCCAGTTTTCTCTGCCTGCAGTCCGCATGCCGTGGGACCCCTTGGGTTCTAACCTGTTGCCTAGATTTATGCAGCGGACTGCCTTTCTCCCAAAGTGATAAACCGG…AGGTTGGTTTCACT; site = the 11-nt donor
Number only, please.

Request: Tell me the measured recombinant UMI read abundance (log10) of CGGGCACCATGGACCGGTTTTCCCGGTAATCCGTATTTGCA (site AGGGCACCTTG) , please.
Result: 0.0117

Request: Tell me the measured recombinant UMI read abundance (log10) of CTGCTCTCATGGACCGGTTTTCCCGGTAATCCGTATTTGTA (site CTGCTCTCTTA) , please.
Result: 2.98

Request: Tell me the measured recombinant UMI read abundance (log10) of TTTGCGACATGGACCGGTTTTCCCGGTAATCCGTATTTGCT (site TTTGCGCCTAG) , please.
Result: 0.00919

Request: Tell me the measured recombinant UMI read abundance (log10) of GATTATACATGGACCGGTTTTCCCGGTAATCCGTATTTGCT (site GATTATACTAG) , please.
Result: 1.87

Request: Tell me the measured recombinant UMI read abundance (log10) of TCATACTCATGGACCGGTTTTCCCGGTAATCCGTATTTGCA (site TCATACACTTG) , please.
Result: 0.64

Request: Tell me the measured recombinant UMI read abundance (log10) of ATATATACATGGACCGGTTTTCCCGGTAATCCGTATTTGAC (site ATGTATACTGT) , please.
Result: 1.62

Request: Tell me the measured recombinant UMI read abundance (log10) of GTCTAGACATGGACCGGTTTTCCCGGTAATCCGTATTTGCA (site GTCTAGACTTG) , please.
Result: 2.13

Request: Tell me the measured recombinant UMI read abundance (log10) of AGGTACCCATGGACCGGTTTTCCCGGTAATCCGTATTTGTG (site AGGTTCCCTCA) , please.
Result: 0.0248

Request: Tell me the measured recombinant UMI read abundance (log10) of TCACGAACATGGACCGGTTTTCCCGGTAATCCGTATTTGTC (site TCACGAACTGA) , please.
Result: 0

Request: Tell me the measured recombinant UMI read abundance (log10) of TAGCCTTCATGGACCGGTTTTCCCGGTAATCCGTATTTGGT (site TACCCTTCTAC) , please.
Result: 0.00592

Request: Tell me the measured recombinant UMI read abundance (log10) of CGATCGTCATGGACCGGTTTTCCCGGTAATCCGTATTTGCT (site CGATCGTCTAG) , please.
Result: 2.46
